target: human full-length HSP90 (Homo sapiens)
Sequence (P08238 whole entry): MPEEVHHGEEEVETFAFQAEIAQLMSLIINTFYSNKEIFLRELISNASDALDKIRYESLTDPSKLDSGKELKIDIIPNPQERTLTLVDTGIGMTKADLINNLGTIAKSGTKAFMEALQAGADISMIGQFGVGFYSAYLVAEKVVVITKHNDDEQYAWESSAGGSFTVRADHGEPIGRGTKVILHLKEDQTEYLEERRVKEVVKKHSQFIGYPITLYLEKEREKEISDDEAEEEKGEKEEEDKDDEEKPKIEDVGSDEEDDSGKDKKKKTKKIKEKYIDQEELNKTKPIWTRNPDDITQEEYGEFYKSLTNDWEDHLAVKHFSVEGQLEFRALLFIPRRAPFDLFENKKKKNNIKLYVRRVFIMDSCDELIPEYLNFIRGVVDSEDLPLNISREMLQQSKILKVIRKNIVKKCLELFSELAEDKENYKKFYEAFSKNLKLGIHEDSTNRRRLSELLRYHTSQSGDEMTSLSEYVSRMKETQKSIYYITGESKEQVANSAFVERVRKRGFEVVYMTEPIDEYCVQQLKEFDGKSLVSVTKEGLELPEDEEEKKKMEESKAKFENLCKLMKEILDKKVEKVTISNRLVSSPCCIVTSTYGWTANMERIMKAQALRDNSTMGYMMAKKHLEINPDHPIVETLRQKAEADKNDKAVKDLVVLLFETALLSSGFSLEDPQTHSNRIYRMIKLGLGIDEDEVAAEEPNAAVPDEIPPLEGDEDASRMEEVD
pIC50: −log10 of the molar value.
Assay Endpoint: pIC50

// known answers, use as guide
Compound	Tgt	Data Value
Cc1cc(Cl)ccc1-c1nc(Cl)nc2[nH]cnc12 [Example 9]	human full-length HSP90 (Homo sapiens)	> 5.00
Clc1nc(-c2cc(OCc3ccccc3)c(Cl)cc2Cl)c2nc[nH]c2n1 [Example 2]	human full-length HSP90 (Homo sapiens)	> 5.00
C[S+]([O-])c1nc(-c2ccc(Cl)cc2Cl)c2nc[nH]c2n1 (stereo not drawn) [Example 26]	human full-length HSP90 (Homo sapiens)	< 5.00
Cc1cc(Cl)c(-c2nc(Cl)nc3[nH]cnc23)cc1O [Example 27]	human full-length HSP90 (Homo sapiens)	> 5.00
CSc1nc(-c2ccc(C)cc2C)c2nc(C#N)[nH]c2n1 [Example 33]	human full-length HSP90 (Homo sapiens)	< 5.00
CSc1nc(-c2ccc(C)cc2C)c2nc(C)[nH]c2n1 [Example 32]	human full-length HSP90 (Homo sapiens)	< 5.00

Task item: Could you share which pIC50 value was measured for COc1nc(-c2ccc(Cl)cc2Cl)c2nc[nH]c2n1 [Example 23] ?
Reply: > 5.00

Task item: Could you share which pIC50 value was measured for CSc1nc(-c2ccc(Cl)cc2Cl)c2nc[nH]c2n1 [Example 14] ?
Reply: > 5.00

Task item: Could you share which pIC50 value was measured for Cc1ccc(-c2nc(Cl)nc3[nH]cnc23)c(Cl)c1 [Example 8] ?
Reply: > 5.00

Task item: Could you share which pIC50 value was measured for CCNC(=O)CSc1nc(-c2cc(OCCN(CC)CC)c(C)cc2Cl)c2nc[nH]c2n1 [Example 30] ?
Reply: > 5.00

Task item: Could you share which pIC50 value was measured for Cc1cc(F)ccc1-c1nc(Cl)nc2[nH]cnc12 [Example 10] ?
Reply: > 5.00

Task item: Could you share which pIC50 value was measured for CSc1nc(-c2ccc(F)cc2C)c2nc[nH]c2n1 [Example 15] ?
Reply: > 5.00

* * *

# IC50 measurements, system: UniProtKB P08238

// known answers, use as guide
Molecule	Data Value
CCN(CC)CCOc1cc(-c2nc(Cl)nc3[nH]cnc23)c(Cl)cc1C [Example 28]	< 10 µM
CSc1nc(-c2ccc3ccccc3c2)c2nc[nH]c2n1 [Example 17]	> 10 µM

Now look at this entry.
Task item: Short answer please: IC50, UniProtKB P08238, entry CCN(CC)Cc1ccc(COc2cc(-c3nc(Cl)nc4[nH]cnc34)c(Cl)cc2Cl)cc1 [Example 24]
Reply: < 10 µM
